Would you kindly list pEC50 for each of these compounds?
- System: Zika virus
- Measurement description: Functional CPE-based assay to measure dose dependent changes in antiviral-drug inhibitory efficacy against Zika virus MR766 in Vero E6 miRFP670 cells. Cells are treated with antiviral candidates that are serially diluted. EC50 is reported via analysis of MTS assay as a readout of CPE. The assay has been performed by KU Leuven.
- Type: organism-based, Chlorocebus sabaeus, Vero C1008
- Experimental conditions: Zika virus, Vero C1008
pEC50: −log10 of the molar value.

IN: Which measured pEC50 value corresponds to NCc1cccc(NC(=O)c2cc(Cl)cc(C3CC3)c2)c1 ?
OUT: 4.80

IN: Could you tell me which pEC50 is on file for Cc1[nH]c2ccccc2c1CN1CCC(c2c[nH]c3ncccc23)CC1 ?
OUT: 5.19

IN: Recorded pEC50 of CC1(C)Cc2sc(NC(=O)Cc3ccc(S(N)(=O)=O)cc3)c(C#N)c2CN1CC1CCCCC1 , please.
OUT: < 4.30

IN: pEC50 for NCc1cc(Cl)cc(C(=O)Nc2ccc3c(c2)CNC3)c1 ?
OUT: < 4.30

IN: Fill blank: measured pEC50 of the compound CCNC(=O)Nc1cc(Cl)cc(C(=O)Nc2ccc3c(c2)CNCCO3)c1 is ____.
OUT: < 4.30

IN: Would you kindly share the measured pEC50 for NCc1cccc(NC(=O)c2cc(Cl)cc3[nH]ncc23)c1 ?
OUT: < 4.30

IN: Would you mind telling me what pEC50 value was observed for N#C[C@H](Nc1cncc(-c2nn[nH]n2)c1)c1cc(Cl)cc(NC(=O)OCc2ccccc2)c1 ?
OUT: < 4.30

IN: Entry O=C(O)c1cc2cc(-c3cc(Cl)cc(C4CC4)c3)ccc2[nH]1 : reported pEC50 = ?
OUT: < 4.30

IN: Param item = Cn1ncc2c(C(=O)Nc3ccc4c(c3)CNC4)cc(Br)cc21 ; retrieve measured pEC50.
OUT: < 4.30

IN: # query: pEC50 of entry O=C(Nc1ccc2c(c1)CNC2)c1cccc2[nH]ncc12
OUT: > 6.41

IN: Request the reported pEC50 associated with O=C(Nc1cc(Cl)cc(-c2ccc3cc(C(=O)O)[nH]c3c2)c1)OCc1ccccc1
OUT: < 4.30

IN: State the recorded pEC50 for this entry: O=C(Nc1cccc(-c2nnn[nH]2)c1)c1cc(Cl)cc(C2CC2)c1
OUT: < 4.30

IN: Fill in the blank: the reported pEC50 of CC(C)CNC(=O)c1cc(Cl)ccc1NS(=O)(=O)c1ccc(Oc2ccccc2Cl)cc1 is ____.
OUT: < 4.30

IN: Endpoint output: pEC50 of NCc1cc(NC(=O)c2cc(Cl)cc(NC(=O)OCc3ccccc3)c2)cc([C@@H]2C[C@H]2C(=O)O)c1 . Value?
OUT: < 4.30

IN: What value of pEC50 has been recorded for this entry: COC(=O)c1cc(NC(=O)c2cc(Cl)cc(NC(=O)OCc3ccccc3)c2)cc(-c2nnn[nH]2)c1
OUT: < 4.30

IN: Would you kindly share the measured pEC50 for O=C(Nc1ccc2c(c1)CNC2)c1cc(Cl)cc(C2CC2)c1 ?
OUT: > 6.41

IN: Could you share which pEC50 value was measured for O=C(Nc1cc(Cl)cc(C(=O)Nc2cccc(-n3nn[nH]c3=O)c2)c1)OCc1ccccc1 ?
OUT: < 4.30

IN: Requested field: pEC50. Item: NCc1cccc(CCc2cc(Cl)cc(NC(=O)OCc3ccccc3)c2)c1
OUT: < 4.30

IN: Could you share which pEC50 value was measured for COc1cc(N[C@@H](C(=O)N2CCc3ccc(OC(F)(F)F)cc32)c2ccc(Cl)cc2)cc(OCCCC(=O)O)c1 ?
OUT: < 5.20

IN: Reported pEC50, compound O=C(Nc1cc(Cl)cc([C@H]2C[C@@H]2c2cccc(C3CCNCC3)c2)c1)OCc1ccccc1 : ____
OUT: < 4.30

---

- Test system: dengue virus type 2
- Measurement description: Functional immunofluorescence assay to measure dose dependent changes in antiviral-drug inhibitory efficacy against Dengue virus type 2 Thailand/16681/84 in Vero E6/TMPRSS2 cells (cotreated with P-gp inhibitor, Elacridar). Cells are treated with antiviral candidates that are serially diluted, following infection, cells are fixed. EC50 is reported via analysis of immunofluorescence staining. The assay has been performed by Icahn School of Medicine at Mount Sinai.
- Type: organism-based, Chlorocebus sabaeus, VeroE6/TMPRSS2
- Experimental conditions: Dengue virus, VeroE6/TMPRSS2
Please provide measured EC50 for the entries that follow.

IN: # returns recorded EC50 (system: dengue virus type 2) for O=C(NC1CCOCC1)[C@H](Nc1ccc2c(c1)CNC2)c1cc(Cl)cc(C2CC2)c1
OUT: > 5.56 µM

IN: # returns recorded EC50 (system: dengue virus type 2) for O=C(Nc1cc(Cl)cc(C(=O)Nc2ccc(-n3nn[nH]c3=O)cc2)c1)OCc1ccccc1
OUT: 11.4 µM

IN: Tell me reported EC50 for CC(C)(C)NC(=O)[C@H](Nc1cccc(-c2nn[nH]n2)c1)c1cc(Cl)cc(NC(=O)OCc2ccccc2)c1 , tested with dengue virus type 2.
OUT: > 50 µM

IN: Reported EC50 for dengue virus type 2, given O=C(Nc1cc(Cl)cc(N[C@H](C#CCO)c2ccc(-c3nn[nH]n3)cc2)c1)OCc1ccccc1 ?
OUT: > 50 µM

IN: Test system dengue virus type 2; read-out EC50; what value for NCc1cccc(NC(=O)[C@H]2[C@H]3CCCCC[C@H]3[C@H]2NC(=O)OCc2ccccc2)c1 ?
OUT: > 5.56 µM

IN: Request - read-out EC50 | tested on dengue virus type 2 | compound O=C(Nc1ccc2c(c1)CNC2)c1cc(Cl)cc(-n2cccc2)c1
OUT: 15.1 µM

IN: Quick check: EC50 on dengue virus type 2, item NCc1cccc(C(=O)Nc2cc(Cl)cc(NC(=O)OCc3ccccc3)c2)c1 ?
OUT: 3.17 µM

IN: Lab note: need EC50 with dengue virus type 2 for entry N#Cc1cc(C(=O)Nc2ccc3c(c2)CNC3)cc(C(F)(F)F)c1 , please look it up.
OUT: 23.5 µM

IN: Identify the measured EC50 of N#C[C@H](Nc1ccc2c(c1)CNC2)c1cc(Cl)cc(C2CC2)c1 for dengue virus type 2.
OUT: > 16.7 µM

IN: Hi! What's the reported EC50 for O=C(O)c1cc(Oc2ccc(F)cc2)c(F)cc1NS(=O)(=O)c1ccc(Oc2ccccc2Cl)cc1 on dengue virus type 2?
OUT: > 16.7 µM

IN: Form: Entry = Cc1ccc(NC(=O)c2cc(Cl)cc3[nH]ncc23)cc1CN | System = dengue virus type 2 | EC50 = ____
OUT: > 50 µM

IN: Requested read-out EC50, target or system dengue virus type 2, entry Cc1ccc(S(=O)(=O)CNC(=O)[C@H](Nc2ccc3c(c2)CNC3)c2cc(Cl)cc3[nH]ncc23)cc1
OUT: > 50 µM

IN: Query the reported EC50 for dengue virus type 2; item: Cn1cc(CNC(=O)[C@H](Nc2ccc3c(c2)CNC3)c2cc(Cl)cc(C3CC3)c2)cn1
OUT: > 50 µM

IN: Please state recorded EC50 (tested on dengue virus type 2) of O=C(Nc1cc(Cl)cc(C(=O)Nc2ccc3c(c2)CNC3)c1)OCc1ccccc1
OUT: > 3.33 µM

IN: Entry NCc1cccc([C@@H]2C[C@H]2c2cc(Cl)cc(NC(=O)OCc3ccccc3)c2)c1 , system dengue virus type 2: what EC50 was measured?
OUT: > 5.56 µM

IN: Value wanted: EC50 (dengue virus type 2) of entry CC(C)OC(=O)Nc1cc(Cl)cc(C(=O)Nc2cccc(CN)c2)c1
OUT: > 16.7 µM

IN: # query: EC50 | item CC(=O)Nc1cc(Br)cc(C(=O)Nc2ccc3c(c2)CNC3)c1 | system: dengue virus type 2
OUT: > 50 µM

IN: Find EC50 (dengue virus type 2) for the entry NCc1cccc(NC(=O)C[C@H](NC(=O)OCc2ccccc2)c2ccc(OCc3ccccc3)c(Br)c2)c1
OUT: > 16.7 µM

IN: Form field - read-out: EC50; system: dengue virus type 2; submitted item: Cn1cc2cc(Cl)cc(C(=O)Nc3ccc4c(c3)CNC4)c2n1
OUT: > 5.56 µM

IN: dengue virus type 2 / EC50 / COC(=O)c1cc(NC(=O)c2cc(Cl)cc(NC(=O)OCc3ccccc3)c2)cc(-c2nnn[nH]2)c1 : value?
OUT: 39.8 µM

IN: # value lookup — system dengue virus type 2, readout EC50, item NCc1ccc(-c2ncc(OCC3CCNCC3)nc2-c2ccc(-c3ccoc3)cc2)cc1
OUT: 1 µM

IN: Give EC50 (dengue virus type 2) of the following compound: O=C(NCC(F)F)[C@H](Nc1ccc2c(c1)CNC2)c1cc(Cl)cc(C2CC2)c1
OUT: > 50 µM

IN: Short answer please: EC50, dengue virus type 2, entry c1ccc(-c2csc(C3CCN(Cc4c[nH]c5ccccc45)CC3)n2)cc1
OUT: > 3.33 µM

IN: Entry Cc1cc(-c2ccc([C@@H](NC(=O)OCc3ccccc3)C(=O)Nc3cccc(CN)c3)cc2)cs1 , system dengue virus type 2: what EC50 was measured?
OUT: > 5.56 µM

IN: What is its EC50 for dengue virus type 2? Entry: NCCCc1ccnc(NC(=O)c2cc(Cl)cc(NC(=O)OCc3ccccc3)c2)c1
OUT: > 5.56 µM

IN: Provide the documented EC50 with dengue virus type 2 as the system for CCOC(=O)[C@H]1[C@H](c2cc(Cl)cc(NC(=O)OCc3ccccc3)c2)[C@H]1c1cccc(-c2nnn[nH]2)c1
OUT: 10.1 µM

IN: Reported EC50 for dengue virus type 2, given O=C(Nc1cc(Cl)cc(C(=O)NCc2ccc(-c3nnn[nH]3)cc2)c1)OCc1ccccc1 ?
OUT: 24.8 µM

IN: Test system dengue virus type 2; read-out EC50; what value for O=C(O)CCc1ccc(NC(=O)c2cc(Cl)cc(NC(=O)OCc3ccccc3)c2)cc1 ?
OUT: 23.4 µM

IN: Can you look up EC50 on dengue virus type 2 for Cc1cc(CN)cc(NC(=O)c2cc(Cl)cc(NC(=O)OCc3ccccc3)c2)c1 ?
OUT: > 1.85 µM

IN: Given the entry Cc1ccc(NC(=O)c2cc(Cl)cc(NC(=O)OCc3ccccc3)c2)cc1CN , what EC50 was observed with dengue virus type 2?
OUT: 0.532 µM

IN: Form: Entry = NCCCCc1ccc(NC(=O)c2cc(Cl)cc(NC(=O)OCc3ccccc3)c2)cc1 | System = dengue virus type 2 | EC50 = ____
OUT: > 5.56 µM

IN: Provide the documented EC50 with dengue virus type 2 as the system for O=C(Nc1cc(Cl)cc(C(=O)Nc2cccc(-c3nnn[nH]3)c2)c1)OCc1ccccc1
OUT: 48.9 µM

IN: Item: N#C[C@H](Nc1cccc(-c2nn[nH]n2)c1)c1cc(Cl)cc(NC(=O)OCc2ccccc2)c1 Test system: dengue virus type 2 Read-out: EC50 Value: ?
OUT: > 50 µM

IN: Query EC50 on dengue virus type 2 for O=C(Nc1ccc2c(c1)CNC2)c1cc(F)cc2[nH]nnc12
OUT: > 50 µM

IN: // lookup EC50 | system=dengue virus type 2 | key= NCc1cccc(CCc2cc(Cl)cc(NC(=O)OCc3ccccc3)c2)c1
OUT: > 1.85 µM

IN: Given the entry O=C(Nc1cc(Cl)cc(C(=O)Nc2cc(-c3nnn[nH]3)ccc2F)c1)OCc1ccccc1 , what EC50 was observed with dengue virus type 2?
OUT: > 50 µM

IN: # get_value(readout= EC50, system= dengue virus type 2) for CNC(=O)[C@H](Nc1ccc2c(c1)CNC2)c1cc(Cl)cc(C2CC2)c1
OUT: > 50 µM
